assay: Aggregation / solubility at 1 mM; format: physicochemical; conditions: summary calls it solubility at 1mM
Starred links: 1 amine or outer side, 2 acyl side, 3 side chain; linkers in the order of their positions; H or OH if unused. Positions of bridges follow the written chain, without caps; N, C: chain ends. Non-standard residues stand in square brackets, D forms with d. Residues, ends and D or L forms follow the SMILES beside them. ξ: configuration not given here. X2 = C[C@@](CCCCC=[*:3])(N[*:1])C(=O)[*:2]; Leu(4,5-dehydro) = C=C(C)C[C@H](N)C(=O)O; Oic = O=C(O)[C@@H]1C[C@@H]2CCCC[C@@H]2N1; GABOB(3R) = O=C(C[C@@H](O)CN[*:1])[*:2]; X4 = C=C(C)C[C@@H](N[*:1])C(=O)[*:2]; d(tBuAla) = CC(C)(C)C[C@@H](N)C(=O)O; dVal(3-OH) = CC(C)(O)[C@@H](N)C(=O)O; Val(3-OH) = CC(C)(O)[C@H](N)C(=O)O; tBuAla = CC(C)(C)C[C@H](N)C(=O)O; ξVal(3-OH) = CC(C)(O)C(N)C(=O)O; R5 = C=CCCC[C@@](C)(N)C(=O)O; X1 = O=C(CC(O)CN[*:1])[*:2]; 4Amb = NCc1ccc(C(=O)O)cc1; ξP = O=C(O)C1CCCN1
parameterMeasured: Aggregation at 1mM

Some solved entries appear below for comparison.
CC(C)(C)C[C@@H]1NC(=O)[C@](C)(NC(=O)c2ccc(CNC(=O)[C@H](N)C(C)(C)O)cc2)CCC/C=C\CCCC[C@@](C)(C(=O)N[C@H](CC(C)(C)C)C(=O)O)NC(=O)CC(O)CNC(=O)[C@@H]2C[C@@H]3CCCC[C@@H]3N2C1=O (stereo partly shown) [compound 108] (H-[dVal(3-OH)][4Amb][R5][tBuAla][Oic][X1][X2][d(tBuAla)]-OH; staple (Z) 3-7) ... weak signal
CC[C@H](C)[C@H](NC(=O)[C@@H](NC(=O)[C@@H]1CCCN1C(=O)[C@H](CC(C)(C)C)NC(=O)[C@@H](CCC(=O)O)NC(=O)[C@@H](NC(=O)[C@@H](N)Cc1ccccc1)C(C)(C)O)[C@@H](C)O)C(=O)O [compound 016] (H-F[Val(3-OH)][dE][tBuAla]PTI-OH) ... 0.18
CC(C)(C)C[C@H](NC(=O)CC(O)CNC(=O)[C@@H]1C[C@@H]2CCCC[C@@H]2N1C(=O)[C@H](CC(C)(C)C)NC(=O)c1ccc(CNC(=O)[C@H](NC(=O)[C@H](N)Cc2ccccc2)C(C)(C)O)cc1)C(=O)O (stereo partly shown) [compound 101] (H-[dF][dVal(3-OH)][4Amb][tBuAla][Oic][X1][tBuAla]-OH) ... weak signal
CC(C)(C)C[C@@H]1NC(=O)C[C@@H](O)CNC(=O)[C@@H]2C[C@@H]3CCCC[C@@H]3N2C(=O)[C@H](CC(C)(C)C)NC(=O)c2ccc(cc2)CNC(=O)C(C(C)(C)O)NC(=O)[C@@H](Cc2ccccc2)NC1=O (stereo partly drawn) [compound 109] (cyclo([4Amb][tBuAla][Oic][GABOB(3R)][tBuAla][dF][ξVal(3-OH)])) ... weak signal

Tell me the measured Aggregation at 1mM of CC(C)(C)C[C@H](NC(=O)CC(O)CNC(=O)[C@@H]1C[C@@H]2CCCC[C@@H]2N1C(=O)[C@H](CC(C)(C)C)NC(=O)c1ccc(CNC(=O)[C@H](N)C(C)(C)O)cc1)C(=O)O (stereo partly shown) [compound 103] (H-[dVal(3-OH)][4Amb][tBuAla][Oic][X1][tBuAla]-OH) , please.
weak signal

# get_value(readout='Aggregation at 1mM', item= C=C(C)C[C@H]1NC(=O)[C@](C)(NC(=O)[C@@H](CCC(=O)O)NC(=O)[C@H](N)[C@H](C)O)CCC/C=C\CCC[C@](C)(C(=O)N[C@H](C(=O)O)[C@@H](C)CC)NC(=O)[C@H]([C@@H](C)O)NC(=O)C2CCCN2C1=O (stereo partly shown) [compound 052] (H-[dT][dE][R5][X4][ξP]T[R5]I-OH; staple (Z) 3-7) )
0.17

Which value of Aggregation at 1mM has been reported for C=C(C)C[C@H](NC(=O)[C@H](CCC(=O)O)NC(=O)[C@@H](NC(=O)[C@@H](N)Cc1ccccc1)[C@@H](C)O)C(=O)N1CCC[C@H]1C(=O)N[C@H](C(=O)N[C@H](C(=O)O)[C@@H](C)CC)[C@@H](C)O [compound 019] (H-FTE[Leu(4,5-dehydro)]PTI-OH) in the records?
weak signal
